- assay-system: hGLP-1R (Homo sapiens)
- Sequence (P43220 24-463): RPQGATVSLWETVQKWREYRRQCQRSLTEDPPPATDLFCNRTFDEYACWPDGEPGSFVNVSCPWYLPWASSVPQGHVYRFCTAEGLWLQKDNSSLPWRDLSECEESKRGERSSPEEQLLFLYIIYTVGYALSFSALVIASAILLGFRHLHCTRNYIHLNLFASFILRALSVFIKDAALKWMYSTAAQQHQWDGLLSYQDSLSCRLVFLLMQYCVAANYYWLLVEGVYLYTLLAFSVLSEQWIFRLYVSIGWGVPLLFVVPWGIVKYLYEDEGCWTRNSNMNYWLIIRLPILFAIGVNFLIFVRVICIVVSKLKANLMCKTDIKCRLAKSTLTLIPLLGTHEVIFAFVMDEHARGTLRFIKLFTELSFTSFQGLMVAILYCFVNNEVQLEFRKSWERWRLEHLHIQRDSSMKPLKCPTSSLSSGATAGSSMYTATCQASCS
- assay-method-text: Functional cAMP activity in the presence of 1% HSA
- Type: cell-based
- experimental-context: read-out: cAMP Rel EC50, hGLP-1R
Starred links: 1 amine or outer side, 2 acyl side, 3 side chain; linkers in the order of their positions; H or OH if unused. Non-standard residues stand in square brackets, D forms with d. Groups on a side chain read outwards from the residue. No end group written: not given here. *: point of attachment. C18 diacid = O=C(O)CCCCCCCCCCCCCCCCC(=O)*; αMePhe(2-F) = C[C@](N)(Cc1ccccc1F)C(=O)O; γGlu = O=C(O)[C@H](CCC(=O)[*:2])N[*:1]; αMe4Pal = C[C@](N)(Cc1ccncc1)C(=O)O; αMeY = C[C@](N)(Cc1ccc(O)cc1)C(=O)O; 4Pal = N[C@@H](Cc1ccncc1)C(=O)O; αMeL = CC(C)C[C@](C)(N)C(=O)O; αMeS = C[C@](N)(CO)C(=O)O; Orn = NCCC[C@H](N)C(=O)O; AEEA = NCCOCCOCC(=O)O; Aib = CC(C)(N)C(=O)O
# reported log10 EC50; entries follow
endpoint: log10 EC50 (log10 of the value in nM)

H-Y[Aib]QGT[αMePhe(2-F)]TSD[4Pal][αMeS]I[αMeL]LD[Orn]K([AEEA-γGlu-C18 diacid])AQ[Aib]NFIEYLIEGGPSSGEPPPEGE-NH2 [Example 483] = 1.26
Y[Aib]QGT[αMePhe(2-F)]TSD[4Pal][αMeS]I[αMeL]LD[Orn]K([γGlu-γGlu-C18 diacid])AQ[Aib][Orn]FI[dE][αMeY]LQEGGPSSGEPPPSGTE-NH2 [Example 504] = 1.22
Y[Aib]Q[dA]T[αMePhe(2-F)]TSD[4Pal][αMeS]I[αMeL]LD[Orn]K([AEEA-γGlu-C18 diacid])AQ[Aib]EFI[dE][αMeY]LIEGGPSSGAPPPSGS-NH2 [Example 1203] = 1.59
H-Y[Aib]QGTFTSDFS[Orn][αMeL]LDKK([AEEA-AEEA-γGlu-C18 diacid])AQ[Aib]AFIEYLLE[Aib]GHSSGAPPPSGT-NH2 [Example 182] = 2.60
H-Y[Aib]QGTFTSD[4Pal][αMeS]Q[αMeL]LD[Orn]K([dE-γGlu-C18 diacid])AQ[αMe4Pal]QFIQ[αMeY]LIE[Aib]GPSSGEPPPSGGGE-NH2 [Example 1183] = 1.73
